// provenance: paper PMC9412861

- experiment_notes: Thermodynamic (equilibrium) solubility, saturation shake-flask, in Prisma HT buffer
- Type: physicochemical
- conditions: aqueous buffer, thermodynamic from solid, pH 7.88, 37 °C, read-out: Equilibrium solubility S ± SD
property_measured: solubility thermodynamic at 6 h (µg/mL)
Expressed in µg/mL, but write only the number.

// query Dear colleague, I am looking for the recorded solubility thermodynamic at 6 h of the following compound: CCCc1nc2c(C)cc(-c3nc4ccccc4n3C)cc2n1Cc1ccc(-c2ccccc2C(=O)O)cc1 [Telmisartan, telmisartan]
// result 11.5

* * *

- experiment_notes: Thermodynamic (equilibrium) solubility, saturation shake-flask, in Prisma HT buffer
- Assay type: physicochemical
- conditions: aqueous buffer, thermodynamic from solid, pH 3.82, 37 °C, read-out: Equilibrium solubility S ± SD
property_measured: solubility thermodynamic at 6 h (µg/mL)
All answers are understood in µg/mL, so give the number only.

// query Name the reported solubility thermodynamic at 6 h value associated with the molecule CCCc1nc2c(C)cc(-c3nc4ccccc4n3C)cc2n1Cc1ccc(-c2ccccc2C(=O)O)cc1
// result 3.62

* * *

- experiment_notes: 1H NMR/pH titration (pKa determination)
- Assay type: physicochemical
- conditions: 5 v/v % D2O-95 v/v % H2O, NMR-pH titration, 25 °C, I = 0.15 M; read-out: pKa1 ± SD (Carboxyl Group)
property_measured: pKa
# output: bare number, no unit

// query Requested field: pKa. Item: CCCc1nc2c(C)cc(-c3nc4ccccc4n3C)cc2n1Cc1ccc(-c2ccccc2C(=O)O)cc1
// result 3.21

* * *

- experiment_notes: UV/pH titration in aqueous medium (pKa determination)
- Type: physicochemical
- conditions: aqueous 0.15 M KCl solution, UV/pH titration in aqueous medium, 25 °C, I = 0.15 M KCl; read-out: pKa2 ± SD (Middle Benzimidazole Ring)
property_measured: pKa
Format: numeric value only, no unit, no commentary.

// query I would be grateful if you could share the reported pKa for CCCc1nc2c(C)cc(-c3nc4ccccc4n3C)cc2n1Cc1ccc(-c2ccccc2C(=O)O)cc1 .
// result 4.22

* * *

- experiment_notes: Thermodynamic (equilibrium) solubility, saturation shake-flask, in distilled water
- Assay type: physicochemical
- conditions: thermodynamic from solid, pH 7.22, 37 °C, read-out: Equilibrium solubility S ± SD
property_measured: solubility thermodynamic at 6 h
Please format your answer as a value with the unit trailing.

// query Suppose we examine the compound CCCc1nc2c(C)cc(-c3nc4ccccc4n3C)cc2n1Cc1ccc(-c2ccccc2C(=O)O)cc1 [Telmisartan, telmisartan] ; what solubility thermodynamic at 6 h value has been reported?
// result 3.65 µg/mL

* * *

- experiment_notes: Thermodynamic (equilibrium) solubility, saturation shake-flask, in Prisma HT buffer
- Assay type: physicochemical
- conditions: aqueous buffer, thermodynamic from solid, pH 11.74, 37 °C, read-out: Equilibrium solubility logS ± SD (converted)
property_measured: solubility thermodynamic at 6 h (mM)
Use mM as the unit, but write only the number.

// query I have this molecule here, CCCc1nc2c(C)cc(-c3nc4ccccc4n3C)cc2n1Cc1ccc(-c2ccccc2C(=O)O)cc1 , and I need its recorded solubility thermodynamic at 6 h.
// result 4.37

* * *

- experiment_notes: Thermodynamic (equilibrium) solubility, saturation shake-flask, in distilled water
- Type: physicochemical
- conditions: thermodynamic from solid, pH 2.16, 37 °C, read-out: Equilibrium solubility S ± SD
- Description: The methods for thermodynamic solubility measurements can be found in Baka et al. (measured amount of TEL: 1 mg/mL, 37 °C, 6 h strirring, 18 h sedimentation). During the thermodynamic solubility measurements in Prisma buffers the concentration of the API was determined without filtering the solutions by the Rainbow Dynamic Dissolution Monitor instrument (Pion Inc., Billerica, MA, USA). […]
property_measured: solubility thermodynamic at 6 h
Kindly report the value followed by its unit.

// query Please give the measured solubility thermodynamic at 6 h for this compound: CCCc1nc2c(C)cc(-c3nc4ccccc4n3C)cc2n1Cc1ccc(-c2ccccc2C(=O)O)cc1
// result 148 µg/mL
